Experiment: MELAS cybrid and Rieske KO viability enhancers – cell-based, MELAS cybrids, Rieske KO mouse fibroblasts, CellTiter-Glo, primary screen (AID 1508586);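 note: z relative to plate mean and SD of compound and empty wells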
Particulars: Rieske KO mouse fibroblast survival, low glucose, CellTiter-Glo 72 h
Where a SMILES comes first, the peptide text is derived from it.
Returns yes if the recorded z-score is greater than or equal to -0.03, and no otherwise.

# count of solved cases: 4
{"Compound": "CN1[C@@H]2CC[C@@H]1CC(OC(=O)C(O)c1ccccc1)C2 (stereo not given in full)", "Cat": "no"}
{"Compound": "CCN(C)C(=O)Oc1cccc(C(C)N(C)C)c1 (stereo not given)", "Cat": "yes"}
{"Compound": "CN1C(=O)N(CCCc2ccncc2)C(=O)C12CCN(C1CCSCC1)CC2", "Cat": "no"}
{"Compound": "COc1cc2c(cc1Cc1cccc(Cl)c1F)c(=O)c(C(=O)O)cn2C(CO)C(C)C (stereo not given)", "Cat": "yes"}

Confirm if z-score reported for the compound COC(=O)C(Cc1ccccc1)NC(=O)C(N)CC(=O)O (stereo not drawn) (H-Asp-Phe-OMe; configuration not given here) is -0.03 or above.
no

----------
Experiment: viability loss with induced miR-34 in A549 – imaging, A549 dox-inducible miR-34, nuclei and caspase counts, primary screen (AID 1347080)
Particulars: A549 miR-34 inducible, Hoechst nuclei count, 48 h; measured here: total cells without miR-34 induction
// cell count lookup, one value per entry
Number, no unit, nothing else.

Consider the worked cases shown below.
{"Compound": "C[C@]12CC[C@H]3c4ccc(O)cc4CC[C@H]3[C@@H]1CCC2=O", "cell count": 8340}
{"Compound": "CCCCCCCCCCCCC/C=C/[C@@H](O)[C@H](CO)NC(=O)CCCCCCCCCCCCCCC", "cell count": 5200}
{"Compound": "CN(C)CC/C=C1\\c2ccccc2CSc2ccccc21", "cell count": 8280}
{"Compound": "CCC(=O)O[C@]1(C(=O)SCF)C(C)CC2C3CC(F)C4=CC(=O)C=C[C@]4(C)[C@@]3(F)C(O)C[C@@]21C (some centres not stated)", "cell count": 7780}
{"Compound": "O=C(CSc1nc2c(c(=O)n1-c1ccccc1)SCC2)Nc1ccc(-c2ccccc2)cn1", "cell count": 7740}

Param item = CCC(=O)OC1(C(=O)CCl)[C@@H](C)C[C@H]2[C@@H]3CCC4=CC(=O)C=C[C@]4(C)[C@@]3(F)[C@@H](O)C[C@@]21C (some centres not stated) ; retrieve measured cell count.
7420

Quick one: O=C(Nc1ccccc1)N1CCN(c2nc(-c3ccccc3)ns2)CC1
7080

Again, but for CCN(CC)CCN(Cc1ccc(-c2ccc(C(F)(F)F)cc2)cc1)C(=O)Cn1c(SCc2ccc(F)cc2)nc(=O)c2c1CCC2
1920

Ok, now CCCc1ccc(OCC(=O)N(Cc2nc(-c3cccnc3)no2)C(C)C)cc1
7990

----------
Experiment: drug combination growth inhibition, ovarian cancer – cell-based, oncology-focused library, rucaparib conditional, profiling panel (AID 1508598)
Particulars: patient-derived ovarian cancer cells, CellTiter-Glo viability, 144 h; at 1.25 µM; OCI-C5x cells; without rucaparib; stronger effect = lower value
Attribute Measured: viability (%)
Field format: number, assumed %, no unit text.

{"Compound": "CCC1=CC2CN(C1)Cc1c([nH]c3ccccc13)[C@@](C(=O)OC)(c1cc3c(cc1OC)N(C)[C@H]1[C@@](O)(C(=O)OC)[C@H](OC(C)=O)[C@]4(CC)C=CCN5CC[C@@]31[C@H]54)C2 (some centres not stated)", "viability, %": 21.7}
{"Compound": "Cc1cc(C)c(-c2csc(NC(=O)c3ccccc3)n2)c(C)c1", "viability, %": 104}
{"Compound": "Nc1ncn([C@@H]2O[C@H](CO)[C@@H](O)[C@@H]2O)c(=O)n1", "viability, %": 123}

Record request: viability value, item CC(=O)O[C@@]1(C(C)=O)CC[C@H]2[C@@H]3C[C@H](C)C4=CC(=O)CC[C@]4(C)[C@@H]3CC[C@@]21C
120

Same for Cc1cc(NC(=O)c2cccc(NC(=O)/C=C/CN(C)C)c2)ccc1Nc1nccc(-c2cccnc2)n1
186

Now this one: C=CCNC1=C2C[C@@H](C)C[C@H](OC)[C@H](O)[C@@H](C)/C=C(\C)[C@H](OC(N)=O)[C@@H](OC)/C=C\C=C(\C)C(=O)NC(=CC1=O)C2=O
27.2

Same question, COc1cccc(-c2cc(F)ccc2[C@H]2Cc3nc(N)nc(C)c3C(=O)N2)n1 this time
7.01

----------
Experiment: UWB1.289_BRCA1 ovarian cancer growth, cell-based, BGB or cisplatin combinations (AID 1671459)
Particulars: UWB1.289 BRCA1 ovarian carcinoma, drug combinations, cisplatin combination, concentration series, at 5 µM, stronger effect = higher value
fulfilled means recorded inhibition is 30% or above; not fulfilled means it is below 30%.

{"Compound": "C#CCC(CCCCCC)C(=O)O (configuration not stated)", "Cat": "not fulfilled"}
{"Compound": "CC1OC(n2cc(F)c(=O)[nH]c2=O)C(O)C1O (configuration not stated)", "Cat": "not fulfilled"}
{"Compound": "CC1OC(CC(=O)O)CC2=C1C(=O)c1c(O)cccc1C2=O (configuration not stated)", "Cat": "fulfilled"}
{"Compound": "Cc1cn(C2C=CC(CO)O2)c(=O)[nH]c1=O (configuration not stated)", "Cat": "not fulfilled"}
{"Compound": "Cc1c(Br)cc(NCC(=O)N/N=C/c2cc([N+](=O)[O-])ccc2O)cc1Br", "Cat": "fulfilled"}

Confirm if inhibition reported for the compound CC1CNC(=O)NC1=O (configuration not stated) is 30% or above.
not fulfilled

// repeat for C=C1CCC(O)CC1=CC=C1CCCC2(C)C1CCC2C(C)C=CC(C)C(C)C (configuration not stated) and report
not fulfilled

----------
Item-by-item account of inhibition
Experiment: CRL1545 cell growth, single agent and combined, cisplatin and BGB IC20 combos (AID 1671464);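 note: cells exposed to compound for 96 hours before readout; 0% = vehicle DMSO and 100% = high DMSO killing control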
Particulars: CRL1545 osteosarcoma cells, at 0.5 µM, stronger effect = higher value
Reply numerically in %, unit not repeated.

{"Molecule": "Cn1cnc2[nH]c(=O)[nH]c(=O)c21", "Numeric Result": -15.4}

Consider the molecule shown here: CON=C1CN(c2nc3c(cc2F)c(=O)c(C(=O)O)cn3C2CC2)CC1CN (stereo unspecified) What is its recorded inhibition?
-0.16

Please answer likewise for Cn1cc(-c2cnn3c(N)c(Br)c([C@H]4CCCNC4)nc23)cn1
79.7

Try the molecule Cc1ccc(NC(=O)CCCCCC(=O)Nc2ccccc2N)cc1
6.85

Another: O=c1[nH]c(=S)[nH]c2nc(-c3ccccc3)c(-c3ccccc3)nc12
-17.1

How about CCC(Sc1nnc2c3ccccc3n(CC)c2n1)C(=O)Nc1ccccc1OC (stereo unspecified) ?
-6.26

----------
Experiment: viability loss with induced miR-34 in A549 – imaging, A549 dox-inducible miR-34, nuclei and caspase counts, primary screen (AID 1347080)
Particulars: A549 miR-34 inducible, Hoechst nuclei count, 48 h; measured here: relative caspase fold change +Dox/-Dox
Rule for this label: Criterion met means fold change is less than 1; Criterion not met means fold change is at least 1.

Example entries and their recorded answers appear below.
{"Compound": "CCCCS(=N)(=O)CC[C@H](N)C(=O)O (stereo not given in full)", "Cat": "Criterion not met"}
{"Compound": "O=C(O)CCCC[C@@H]1CCSS1", "Cat": "Criterion met"}
{"Compound": "Cc1c(OCC(F)(F)F)ccnc1C[S@@](=O)c1nc2ccccc2[nH]1", "Cat": "Criterion not met"}
{"Compound": "CO[C@H]1[C@@H]([C@@]2(C)O[C@@H]2CC=C(C)C)[C@]2(CC[C@H]1OC(=O)/C=C/C=C/C=C/C=C/C(=O)O)CO2", "Cat": "Criterion not met"}

Turning now to a further compound:
Would you kindly verify if fold change of CC1CCC2C(C)C(OC(=O)CCC(=O)O)OC3O[C@@]4(C)CCC1[C@]32OO4 (stereo not given in full) is strictly less than 1?
Criterion not met

----------
Experiment: drug combination growth inhibition, ovarian cancer – cell-based, oncology-focused library, rucaparib conditional, profiling panel (AID 1508598)
Particulars: patient-derived ovarian cancer cells, CellTiter-Glo viability, 144 h; at 0.00488 µM; OCI-C5x cells; with rucaparib 10 µM; stronger effect = lower value; 100% = cells with rucaparib alone
Attribute Measured: viability (%)
Reply numerically in %, unit not repeated.

{"Compound": "C=CCNC1=C2C[C@@H](C)C[C@H](OC)[C@H](O)[C@@H](C)/C=C(\\C)[C@H](OC(N)=O)[C@@H](OC)/C=C\\C=C(\\C)C(=O)NC(=CC1=O)C2=O", "viability, %": 110}
{"Compound": "O=C1[C@H](CC[C@H](O)c2ccc(F)cc2)[C@H](c2ccc(O)cc2)N1c1ccc(F)cc1", "viability, %": 111}
{"Compound": "CCOC(=O)c1[nH]c2cc(Cl)ccc2c1C(C(=O)NC(C)(C)C)N(C=O)Cc1ccc(Cl)cc1 (stereo not drawn)", "viability, %": 113}
{"Compound": "C[C@@]1(c2nc3c(C(N)=O)cccc3[nH]2)CCCN1", "viability, %": 122}
{"Compound": "C[C@@H]1C[C@H]2[C@@H]3CCC4=CC(=O)C=C[C@]4(C)[C@]3(F)[C@H](O)C[C@]2(C)[C@]1(O)C(=O)CO", "viability, %": 102}

I would be grateful if you could share the reported viability for Cc1cc(C)c(S(=O)(=O)n2cc(C)cc2C)c(C)c1 .
116

# repeat for COc1cc(Br)c(Nc2nc(-c3c(C)nc4ncccn34)cs2)c(Br)c1
131

Proceed to C=C1/C(=C/C=C2\CCC[C@@]3(C)[C@H]2CC[C@H]3[C@H](C)/C=C/[C@@H](C)C(C)C)C[C@H](O)C[C@@H]1O
94
